Source: the C3SDB collision cross section collection

protocol conditions: [M+H]+; instrument: DT; single field, calibrated with Agilent tune mix (Agilent)
Kindly state collision cross section (N2) for each of the entries shown.
Numbers only, in Å².

Examples with their reported collision cross section (N2) follow.
{"columns": ["compound", "collision cross section (N2) (Å²)"],
 "data": [
  ["Cc1ncc(CO)c(C=O)c1O [Pyridoxal]", 130.5],
  ["Nc1ncnc2c1ncn2[C@@H]1O[C@H](COP(=O)(O)O)[C@@H](O)[C@H]1O [Adenosine monophosphate (AMP)]", 171.4],
  ["NCCCC[C@H](N)C(=O)O [L-Lysine]", 130.7],
  ["NCCCCNCCCN [Spermidine]", 131.9],
  ["N[C@@H](CCSSCC[C@H](N)C(=O)O)C(=O)O (racemic) [DL-Homocystine]", 157.9]
]}

# return collision cross section (N2) for each item in the list
1. COc1ccc2[nH]cc(CCN(C)C)c2c1 [5-Methoxydimethyltryptamine]
2. CC(C)CC(=O)NCC(=O)O [Isovalerylglycine]
3. C[C@]12CCC(=O)C=C1CC[C@@H]1[C@@H]2CC[C@@]2(C)[C@H]1CC[C@]2(O)C(=O)CO [Cortexolone]

(A)
1. 151.5
2. 155.1
3. 187.4

# return collision cross section (N2) for each item in the list
1. O=C(O)Cc1cnc[nH]1 [Imidazoleacetic acid]
2. CC1=C(/C=C/C(C)=C/C=C/C(C)=C/C=O)C(C)(C)CCC1 [Retinene]

(A)
1: 123.1; 2: 170.1

###

protocol conditions: [M+H]+; instrument: DT; stepped-field
Kindly state collision cross section (N2) for each of the entries shown.
One number for each entry, in Å².

Examples with their reported collision cross section (N2) follow.
{"columns": ["compound", "collision cross section (N2) / Å²"],
 "data": [
  ["Cn1cncc1CCN", 126.53],
  ["O=C(O)C1=CC(=O)[C@@H](O)[C@H](O)C1 [3-Dehydroshikimic Acid]", 132.73],
  ["COc1ccc([C@@H]2CC(=O)c3c(O)cc(O)cc3O2)cc1O", 176.54],
  ["O=C(O)c1cc(=O)[nH]c(=O)[nH]1", 138.85],
  ["COC(=O)c1c(Cl)nn(C)c1S(=O)(=O)NC(=O)Nc1nc(OC)cc(OC)n1", 196.48]
]}

# return collision cross section (N2) for each item in the list
1. N[C@H]1C(O)O[C@H](CO)[C@@H](O)[C@@H]1O (stereo partly specified)
2. NCCC[C@H](N)C(=O)O
3. Cn1cnc(CCN)c1
4. CC1=CC(=O)CC(C)(C)C1(O)/C=C/C(C)=C\C(=O)O (stereo unspecified) [Abscisic Acid]
5. O=C(O)/C=C/c1cnc[nH]1 [Urocanate]
6. Cc1ncc(CO)c(CO)c1O

(A)
1: 135.59; 2: 129.79; 3: 122.56; 4: 160.56; 5: 137.54; 6: 135.69

# return collision cross section (N2) for each item in the list
1. C[C@]12CCC(=O)C=C1CC[C@@H]1[C@@H]2CC[C@]2(C)C(=O)CC[C@@H]12
2. C[C@@H]1NC(=O)N[C@@H]1CCCCCC(=O)O
3. Cc1c[nH]c(=O)[nH]c1=O
4. C[N+](C)(C)CCCC(=O)[O-]
5. Cn1cnc2ncnc-2c1N
6. Cc1cc2nc3c(=O)[nH]c(=O)nc-3n(C[C@H](O)[C@H](O)[C@H](O)CO)c2cc1C

(A)
183.95
145.78
126.14
130.4
128.35
192.43
